- test-summary: Half life in mouse at 1 mg/kg, iv
- Assay type: ADME, organism-based
- Parameters: dose 1 mg/kg, route intravenous
- condition-notes: in vivo
measured-property: half-life (min)
Could you give me the number in min? Just the number is fine.

INPUT: Provide one value: measured half-life of "Cc1ccc(-c2ccc([C@H](CO)NC(=O)[C@H]3C[C@@H]3c3cccs3)cc2)cc1"
OUTPUT: 36

---

- test-summary: Plasma concentration in rat at 10 mg/kg, ip after 30 mins
- Type: ADME, organism-based
- Set-up: dose 10 mg/kg, route intraperitoneal
measured-property: concentration at 0.5 h
Reply with the number, then its unit.

INPUT: Provide one value: measured concentration at 0.5 h of "CC[C@H](C)COc1ccc([C@H](CN)NC(=O)[C@@H](C)c2ccccc2)cc1"
OUTPUT: 860 nM

INPUT: Provide one value: measured concentration at 0.5 h of "CC[C@H](C)COc1ccc([C@H](CO)NC(=O)[C@H]2C[C@@H]2c2cccs2)cc1"
OUTPUT: 2210 nM

INPUT: Provide one value: measured concentration at 0.5 h of "COc1ccc([C@H](CO)NC(=O)[C@@H](C)c2ccccc2)cc1"
OUTPUT: 1240 nM

INPUT: Provide one value: measured concentration at 0.5 h of "CC(C)COc1ccc([C@H](CO)NC(=O)[C@H]2C[C@@H]2c2cccs2)cc1"
OUTPUT: 3240 nM
